- Assay Name: Membrane permeability test (PAMPA)
- Assay type: in vitro ADME
- Applied Conditions: pH 5.0, 37° C., read-out: pH 5.0 Pe
Quantity: Papp at 4 h (×10⁻⁶ cm/s)

{"columns": ["Chemical Smiles", "Unit String", "Test Value"],
 "data": [
  ["CN1CC(N(Cc2ccc(F)cn2)C(=O)CN2C(=O)N[C@]3(C[C@@H](F)c4cc(-c5cnn(C)c5)ccc43)C2=O)(C(F)(F)F)C1", "×10⁻⁶ cm/s", 7.8],
  ["CN(C)C1(Cn2cc(-c3ccc4c(c3)[C@H](F)C[C@]43NC(=O)N(CC(=O)N(Cc4ccc(F)cc4)C4(C(F)(F)F)COC4)C3=O)cn2)COC1", "×10⁻⁶ cm/s", 21.2],
  ["CN1CC(N(Cc2ccc(F)cc2)C(=O)CN2C(=O)N[C@]3(CCc4cc(-c5cnn(C(C)(C)C#N)c5)ccc43)C2=O)(C(F)(F)F)C1", "×10⁻⁶ cm/s", 26.2],
  ["CN1CC(N(Cc2ccc(F)cc2)C(=O)CN2C(=O)N[C@]3(CCc4cc(-c5cn(C)nc5F)ccc43)C2=O)(C(F)(F)F)C1", "×10⁻⁶ cm/s", 28.6],
  ["O=C1N[C@]2(CCc3cc(-c4cnn(C5CN(C6COC6)C5)c4)ccc32)C(=O)N1CC(=O)N(Cc1ccc(F)cc1)C1(C(F)(F)F)CC(F)(F)C1", "×10⁻⁶ cm/s", 25.4],
  ["CN1CC(F)(Cn2cc(-c3ccc4c(c3)CC[C@]43NC(=O)N(CC(=O)N(Cc4ccc(F)cc4)C4(C(F)(F)F)COC4)C3=O)cn2)C1", "×10⁻⁶ cm/s", 7.4]
]}
